# Test system: SW480
# Assay Remarks: TCF/Wnt firefly luciferase reporter signal relative to plate median (fraction of plate median); higher = higher Wnt reporter signal
# Test Context: 5 µM; treatment time 24 h; reporter: 7TFP
Recorded Endpoint: TCF/Wnt firefly luciferase reporter signal
When you answer, write just the number.

Check out these entries, answers already filled in.
Record CC(=O)O[C@@H]1C[C@H]2C(C)(C)[C@H](O)C[C@H](O)[C@]2(C)[C@H]2CC[C@@]3(C)[C@H](c4ccoc4)OC(=O)[C@H]4O[C@]43[C@@]21C . Reported TCF/Wnt firefly luciferase reporter signal: 0.892

The compound listed as O=C(O)/C=C(\CC(=O)O)C(=O)O shows TCF/Wnt firefly luciferase reporter signal equal to 0.978

Please examine the following record next.
Value of measured TCF/Wnt firefly luciferase reporter signal for the entry COC(=O)C1=C(C)NC(C)=C(C(=O)OCC(C)C)C1c1ccccc1[N+](=O)[O-] (stereo not drawn) : 0.923

---

# Tested on: DLD1
# Assay Remarks: TCF/Wnt firefly luciferase reporter signal relative to plate median (fraction of plate median); higher = higher Wnt reporter signal
# Test Context: 10 µM; treatment time 24 h; reporter: 7TFP
The entries below are paired with their reported TCF/Wnt firefly luciferase reporter signal.
Hey, just send me the number, nothing else.

Please review the entries below; each comes with its answer.
Record Cc1[nH]c(/C=C2\C(=O)Nc3ccc(S(=O)(=O)N(C)c4cccc(Cl)c4)cc32)c(C)c1C(=O)N1CCN(C)CC1 . Reported TCF/Wnt firefly luciferase reporter signal: 0.858

Record Nc1ncnc2c1c(-c1cnc3[nH]ccc3c1)nn2C1CCCC1 , field TCF/Wnt firefly luciferase reporter signal: 0.322

Field TCF/Wnt firefly luciferase reporter signal (entry CN(C[C@@H]1COCCO1)S(=O)(=O)Nc1ccc2ccc3ncc(-c4cnn(C)c4)cc3c(=O)c2c1 ) reads 0.96

TCF/Wnt firefly luciferase reporter signal reported for this compound Cc1ccc(NC(=O)c2cccc(C(C)(C)C#N)c2)cc1Nc1ccc2ncn(C)c(=O)c2c1 : 1.04

Record summary for Oc1c2ccccc2c2c3c(cccc13)N=N2 : reported TCF/Wnt firefly luciferase reporter signal = 1.07

***
// TCF/Wnt firefly luciferase reporter signal value for Nc1ccc(C(=O)Nc2cccc(-c3nc(N4CCOCC4)c4oc5ncccc5c4n3)c2)cn1 : 0.758

The reported TCF/Wnt firefly luciferase reporter signal of the compound COc1ccc(-c2ccc3ncc4c(c3c2)n(-c2ccc(N3CCNCC3)c(C(F)(F)F)c2)c(=O)n4C)cn1 was 0.0479

Per the records, this compound ( COc1ccc(-c2cc3c(C)nc(N)nc3n([C@H]3CC[C@H](OCCO)CC3)c2=O)cn1 ) has TCF/Wnt firefly luciferase reporter signal equal to 0.348

The compound listed as NCC(=O)Nc1ccc(-n2nc(C(F)(F)F)cc2-c2ccc3c(ccc4ccccc43)c2)cc1 has a reported TCF/Wnt firefly luciferase reporter signal of 1.09

# TCF/Wnt firefly luciferase reporter signal (compound: C[C@@H]1CN(CC(=O)Nc2ccc3c(c2)Cc2cccc(-c4cc(=O)cc(N5CCOCC5)o4)c2S3)C[C@H](C)O1 ) is 1.3

Notebook: C[C@@H](Oc1cc(-c2cnn(C3CCNCC3)c2)cnc1N)c1c(Cl)ccc(F)c1Cl , TCF/Wnt firefly luciferase reporter signal read as 0.833

The recorded TCF/Wnt firefly luciferase reporter signal for O=C1NC(=O)/C(=C/c2ccc(-c3ccc(F)cc3O)o2)S1 is 0.905

Documented TCF/Wnt firefly luciferase reporter signal of COc1cc2c(Nc3ccc(NC(=O)c4ccccc4)cc3)ncnc2cc1OCCCN1CCOCC1 : 1.13

Item: Nc1nc(Nc2ccc(S(N)(=O)=O)cc2)nn1C(=O)c1c(F)cccc1F | TCF/Wnt firefly luciferase reporter signal: 0.811

---

Property: cell viability; scope: individual compounds
# Tested on: DLD1
# Assay Remarks: cell viability (CellTiter-Glo) relative to plate median (fraction of plate median); higher = more viable cells
# Test Context: 5 µM; treatment time 24 h; reporter: 7TFP
Form rule: numeric answer, no unit written next to it.

Example entries and their recorded answers appear below.
Measured cell viability for this entry COC(=O)C[C@H]1C(C)(C)[C@@H](OC(C)=O)[C@@H]2CC3=C4CC(=O)O[C@@H](c5ccoc5)[C@]4(C)CC[C@@H]3[C@@]1(C)C2=O on DLD1: 0.995

Kindly note: DLD1, NC(=O)c1cccc(N)c1 , cell viability value reported: 0.983

Value (cell viability, DLD1) for record C=CCSCC(N)C(=O)O (stereo not given) = 1.01

Form field, cell viability with DLD1, item O=C(c1c[nH]c2ccccc12)C(O)CO (stereo not given) [1-(3-Indolyl)-2,3-dihydroxypropan-1-one] : 0.989

Result for CO[C@H]1/C=C/O[C@@]2(C)Oc3c(C)c(O)c4c(O)c(c(/C=N/N5CCN(C)CC5)c(O)c4c3C2=O)NC(=O)/C(C)=C\C=C\[C@H](C)[C@H](O)[C@@H](C)[C@@H](O)[C@@H](C)[C@H](OC(C)=O)[C@@H]1C , tested on DLD1, cell viability: 1.01

Simply: CC(=O)O[C@@H]1CC[C@@]2(C)C(C[C@@H](OC(C)=O)[C@@]3(C)C4=CC(=O)O[C@@H](c5ccoc5)[C@]4(C)CCC23)C1(C)C (stereo partly drawn) [3alpha-ACETOXYDIHYDRODEOXYGEDUNIN] , DLD1, cell viability = 1

Entry CC(=O)OC(C)(C)[C@@H]1Cc2cc3ccc(=O)oc3cc2O1 : cell viability on DLD1 = 1.06

The reported cell viability value, DLD1, for Oc1c(Cl)cc(Cl)c(Cl)c1Cc1c(O)c(Cl)cc(Cl)c1Cl reads 0.934

Others:
With DLD1 as the test system, CCOC(=O)C1=C(COCCN)NC(C)=C(C(=O)OC)C1c1ccccc1Cl (stereo not given) showed cell viability of 0.998

Kindly note: DLD1, Cc1cc2c(s1)Nc1ccccc1N=C2N1CCN(C)CC1 , cell viability value reported: 0.979

Hey, DLD1 data for CN1CCC(=C2c3ccccc3Sc3ccccc32)CC1 : cell viability came out at 1

Known value: DLD1 cell viability of the compound CN(Cc1cnc2nc(N)nc(N)c2n1)c1ccc(C(=O)N[C@@H](CCC(=O)O)C(=O)O)cc1 equals 0.475

O=c1c2ccccc2oc2ccccc12 tested on DLD1 gave cell viability: 0.986

The value of cell viability recorded for O=C(CNC(=O)c1ccc(Cl)cc1)NO when tested on DLD1 reads 0.978

For CCCCC(=O)O[C@]1(C(=O)CO)CC[C@H]2[C@@H]3CCC4=CC(=O)CC[C@]4(C)[C@H]3[C@@H](O)C[C@@]21C on DLD1, measured cell viability was 0.981

---

# Tested on: HCT116
# Assay Remarks: cell viability (CellTiter-Glo) relative to plate median (fraction of plate median); higher = more viable cells
# Test Context: 5 µM; treatment time 24 h; reporter: TCF4/Wnt
Recorded Endpoint: cell viability
Answer field: number only, no words.

// below: answered molecules
GET /value?item= O=C(O)C1=CC(=C(c2ccc(O)c(C(=O)O)c2)c2ccc(O)c(C(=O)O)c2)C=CC1=O &field=cell viability returns 1.03

Item: CC(=O)OC/C=C(\C)CC/C=C(\C)CC/C=C(\C)CC/C=C(\C)CC/C=C(\C)CC/C=C(\C)CC/C=C(\C)CC/C=C(\C)CCC=C(C)C | cell viability: 0.96

response.value for CC1=CCc2c(cc3oc(C)cc(=O)c3c2O)OC1 (field: cell viability) = 1.02

New cases:
The value of cell viability measured for the molecule COc1ccc(C(C)=O)c(O)c1 turned out to be 1.04

---

Listed below: cell viability values for each entry.
# System: DLD1
# Assay Remarks: cell viability (CellTiter-Glo) relative to plate median (fraction of plate median); higher = more viable cells
# Test Context: 5 µM; treatment time 24 h; reporter: 7TFP
Keep it simple and answer with nothing but the number.

Would you please look over these solved cases?
The reported value for CCCCOC(=O)c1ccc(N)cc1 in terms of cell viability is 1.02

Per the records, this compound ( C=C1C2CC[C@@]3(C)[C@H](c4ccoc4)OC(=O)C[C@]13O[C@H]1CC(O)C(C)(C)C(CC(=O)OC)[C@@]21C (stereo partly drawn) [3alpha-HYDROXY-3-DEOXYANGOLENSIC ACID METHYL ESTER] ) has cell viability equal to 1.01

Next:
Form: compound = Cc1cnc(NC(=O)C2=C(O)c3ccccc3S(=O)(=O)N2C)s1 ; cell viability = 1.01

Sure, the documented cell viability for CN(C)/N=N/c1[nH]cnc1C(N)=O is 0.982

Kindly note the recorded cell viability for CC1=C(/C=C/C(C)=C/C=C/C(C)=C\C(=O)O)C(C)(C)CCC1 , which is 1.02

Looking up C[C@H]1C[C@@H]2[C@H]([C@@H](O)C[C@@]3(C)[C@H]2CC[C@]3(O)C(=O)CO)[C@@]2(C)C=CC(=O)C=C12 , I found its cell viability recorded as 1.01

Form field cell viability, entry NNCCc1ccccc1 : 0.995

Record summary for CC=CC1=C(C(=O)O)N2C(=O)[C@@H](NC(=O)[C@H](N)c3ccc(O)cc3)[C@H]2SC1 : reported cell viability = 0.992

Recorded result, O=C(/C=C/c1ccccc1)c1ccc(O)cc1O , cell viability: 1

Query NS(=O)(=O)c1ccc(S(=O)(=O)Nc2cccc3c(Cl)c[nH]c23)cc1 yields cell viability of 1.04

For record Oc1ccc(Cl)c2cccnc12 the listed cell viability is 1.02

compound CC[C@H]1OC(=O)C[C@@H](O)[C@H](C)[C@@H](O[C@@H]2O[C@H](C)[C@@H](O[C@H]3C[C@@](C)(O)[C@@H](O)[C@H](C)O3)[C@H](N(C)C)[C@H]2O)[C@@H](CC=O)C[C@@H](C)C(=O)/C=C/C(C)=C/[C@@H]1CO[C@@H]1O[C@H](C)[C@@H](O)[C@@H](OC)[C@H]1OC , cell viability observed: 0.947

COc1ccc2cc1Oc1ccc(cc1)C[C@H]1c3cc(c(OC)cc3CCN1C)Oc1c(OC)c(OC)cc3c1[C@H](C2)N(C)CC3 yielded cell viability of 1.04

Recorded result, OCCOCCN1CCN(C2=Nc3ccccc3Sc3ccccc32)CC1 , cell viability: 1.05

Measured cell viability of CCN(CC)CCOc1ccc(C(=C(Cl)c2ccccc2)c2ccccc2)cc1 : 0.983

Notebook: CCC(=O)C(CC)C(O)C(C)CC(C)C1OC(=O)CC2(O)CC=C(C)C(O2)/C(C)=C/CCCC(OC2CC(OC(N)=O)C(O)C(C)O2)/C=C\C(C)C(O)C1C (stereo not given) , cell viability read as 1.08

Recorded values, source the supplement of paper PMC6522484.
